target: Short transient receptor potential channel 4 (Mus musculus); assay: calcium flux activators in TRPC4/5HT1a cells, counter-screen for TRPC4 activator project, cell-based, second counter screen, HEK293 TRPC4/5HT1a, Fluo-4 (AID 434977); details: Fluo-4 calcium flux, at 10 µM
The source made the active and inactive calls.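 The calls were made as follows: active = calcium signal rise above buffer-control mean plus 5 SD in both duplicates, and also a hit in the primary screen; inactive = the rest.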
Outcomes: yes for active, no for inactive

1) Cc1nc(/N=C(\N)NC(=O)NC2CCCCC2)nc2ccccc12 = yes
2) CN(C)C(CNC(=S)Nc1ccc(F)cc1)c1cccnc1 (stereo not given) = no
3) NC(=Nc1ccccc1)Nc1ccccc1 = yes
4) CC(=O)Nc1ccc(CN2CCCC(C(=O)c3cccc(C(F)(F)F)c3)C2)cc1 (stereo not given) = no
5) CCCN(CCC)CCCNC(=O)C1CCN(S(=O)(=O)c2cccc3nsnc23)CC1 = yes
6) Cc1ccccc1C(=O)NNC(=S)NC(=O)c1ccccc1 = yes
7) Cc1ccc(C(=O)NNC(=S)NC(=O)c2ccc(Cl)cc2)cc1 = yes
8) O=C(Nc1nnc(-c2cccs2)o1)c1cccc(C(F)(F)F)c1 = yes
9) C/C(=N/NC(=O)c1ccc(Cn2cccn2)o1)c1cccc(NC(=O)c2ccncc2)c1 = yes
10) CCOC(=O)C1(CC2CCCCO2)CCN(Cc2c(C)cc(C)cc2-n2cccn2)CC1 (stereo not given) = no
